IC50 values by entry
biological target: HLA-DR DRB1*0101 (DR1) (Homo sapiens, UniProt P01903+P01911, A100R/D57E/F55L/F60I/F76Y/I96L/L162R/M171V/P40L/Q125E/R42F/V115G/Y59C); test: biochemical; assay type: binding; settings: DRB1 *0101
No end group written: not given here.

{"chain": "YSYFPSIR", "resultModifier": "≥", "IC50 (nM)": 50000}
{"chain": "MNALRRLPVICSFLV", "resultModifier": "=", "IC50 (nM)": 2.1}
{"chain": "NMSLLKHQSLRPDED [NMSLLKHQSLRPDED]", "resultModifier": "=", "IC50 (nM)": 3130}
{"chain": "KCLVISQVSNSDSYK", "resultModifier": "=", "IC50 (nM)": 628}
{"chain": "YGAVVNLRKTVVNFP", "resultModifier": "=", "IC50 (nM)": 13500}
{"chain": "LKELIKVGLPSFENL", "resultModifier": "=", "IC50 (nM)": 99}
{"chain": "AFLRQAAAAAFAAY", "resultModifier": "=", "IC50 (nM)": 2500}
{"chain": "DMDKVETFLRIVQTR", "resultModifier": "=", "IC50 (nM)": 1110}
{"chain": "TLRLCVQSTHVDIRT", "resultModifier": "=", "IC50 (nM)": 1520}
{"chain": "LFFYRKSVWSKLQSI", "resultModifier": "=", "IC50 (nM)": 19}
{"chain": "AAFIFIGGGKIKA", "resultModifier": "≥", "IC50 (nM)": 50000}
{"chain": "AFLRAAAAAAFAA", "resultModifier": "≥", "IC50 (nM)": 50000}
{"chain": "NYELSKKAVIFTPIY", "resultModifier": "=", "IC50 (nM)": 713}
{"chain": "HYCYSLYGTTLEQQY", "resultModifier": "=", "IC50 (nM)": 546}
{"chain": "HLKRYYGRILHYLKA", "resultModifier": "=", "IC50 (nM)": 26}
{"chain": "ENEYATGAVRPFQAA", "resultModifier": "=", "IC50 (nM)": 4440}
{"chain": "FENLVAENVKPPKVD", "resultModifier": "=", "IC50 (nM)": 56}
{"chain": "VILLGRHSLFHPEDT", "resultModifier": "=", "IC50 (nM)": 273}

====

target: HLA-DR DRB1*0901 (DR9) (Homo sapiens, UniProt P01903+P01911, A100R/A103E/D57H/D86V/F55Y/F60I/F76Y/I96F/K127E/L162R/M171V/P40D/Q125H/Q99R/R33Q/R42F/S133A/S66N/T210M/V115G/W38K/Y107V/Y59G/Y89S); experiment: biochemical; type: binding; details: DRB1 *0901
pIC50: −log10 of the molar value.
pIC50 values by entry
valueKind: pIC50

{"molecule": "CC[C@H](C)[C@H](N)C(=O)N[C@@H](CCCNC(=N)N)C(=O)N[C@H](C(=O)N[C@@H](CC(C)C)C(=O)N[C@@H](CCC(=O)O)C(=O)N[C@@H](CC(=O)O)C(=O)N[C@@H](CC(C)C)C(=O)N[C@@H](CC(C)C)C(=O)N[C@@H](CCSC)C(=O)NCC(=O)N[C@H](C(=O)N[C@@H](CC(C)C)C(=O)NCC(=O)N[C@H](C(=O)N[C@H](C(=O)O)C(C)C)[C@@H](C)CC)[C@@H](C)O)[C@@H](C)O", "observedValue": 5.76}
{"molecule": "CC[C@H](C)[C@H](NC(=O)[C@H](CO)NC(=O)[C@H](CO)NC(=O)[C@H](CC(=O)O)NC(=O)[C@H](C)NC(=O)[C@H](CC(N)=O)NC(=O)[C@@H](NC(=O)[C@H](Cc1ccc(O)cc1)NC(=O)[C@H](C)NC(=O)[C@@H](N)C(C)C)[C@@H](C)CC)C(=O)N[C@@H](CCC(=O)O)C(=O)NCC(=O)N[C@@H](CC(N)=O)C(=O)N[C@@H](Cc1ccc(O)cc1)C(=O)N[C@H](C(=O)O)[C@@H](C)O", "observedValue": 5.26}

====

biological target: HLA-DR DRB1*0701 (DR7) (Homo sapiens, UniProt P01903+P01911, A100R/A102G/A103Q/D57E/D86V/E43K/F76Y/K127E/L162R/M171V/P40G/Q125H/Q99D/R33Q/R42Y/R54Q/S133A/S66F/T210M/V115G/Y107V/Y59L/Y89S); test: biochemical; format: binding; conditions: DRB1 *0701
pIC50: −log10 of the molar value.
pIC50 values by entry

{"molecule": "CC[C@H](C)[C@H](NC(=O)[C@H](CCCCN)NC(=O)[C@H](CCSC)NC(=O)[C@H](CC(=O)O)NC(=O)[C@H](CCCNC(=N)N)NC(=O)[C@H](CCC(=O)O)NC(=O)[C@H](CC(C)C)NC(=O)[C@H](CCCCN)NC(=O)[C@H](Cc1ccccc1)NC(=O)[C@@H](N)Cc1ccccc1)C(=O)N[C@@H](CC(N)=O)C(=O)N[C@@H](CS)C(=O)N[C@@H](CO)C(=O)NCC(=O)N[C@@H](CCCCN)C(=O)O", "resultModifier": "<", "pIC50": 4.64}
{"molecule": "CC[C@H](C)[C@H](NC(=O)[C@@H](N)CCCCN)C(=O)N[C@@H](Cc1ccccc1)C(=O)NCC(=O)N[C@@H](CO)C(=O)N[C@@H](CC(C)C)C(=O)N[C@@H](C)C(=O)N[C@@H](Cc1ccccc1)C(=O)N[C@@H](CC(C)C)C(=O)N1CCC[C@H]1C(=O)N[C@@H](CCC(=O)O)C(=O)N[C@@H](CO)C(=O)N[C@@H](Cc1ccccc1)C(=O)N[C@@H](CC(=O)O)C(=O)NCC(=O)N[C@@H](CC(=O)O)C(=O)N1CCC[C@H]1C(=O)N[C@@H](C)C(=O)O", "resultModifier": "=", "pIC50": 6.42}
{"molecule": "CC[C@H](C)[C@H](NC(=O)[C@H](CO)NC(=O)[C@H](CC(C)C)NC(=O)[C@@H](NC(=O)[C@H](CC(C)C)NC(=O)[C@H](CC(=O)O)NC(=O)[C@H](Cc1c[nH]c2ccccc12)NC(=O)[C@@H](N)CCSC)C(C)C)C(=O)N[C@@H](C)C(=O)N[C@@H](CC(C)C)C(=O)N[C@@H](CO)C(=O)N[C@H](C(=O)NCC(=O)N[C@@H](CS)C(=O)N[C@H](C(=O)O)[C@@H](C)O)C(C)C", "resultModifier": "=", "pIC50": 5.52}

====

target: HLA-DR DRB4*0101 (DR53) (Homo sapiens, UniProt P01903+P13762, G164S); test: biochemical; type: binding; settings: DRB4 *0101
pIC50: −log10 of the molar value.
pIC50 values by entry
valueKind: pIC50

{"molecule": "CC(C)C[C@H](NC(=O)[C@@H](NC(=O)CN)C(C)C)C(=O)N[C@H](C(=O)N[C@@H](Cc1c[nH]cn1)C(=O)N1CCC[C@H]1C(=O)N[C@@H](CCC(N)=O)C(=O)N[C@@H](Cc1c[nH]c2ccccc12)C(=O)N[C@H](C(=O)N[C@@H](CC(C)C)C(=O)N[C@H](C(=O)N[C@@H](C)C(=O)N[C@@H](C)C(=O)N[C@@H](Cc1c[nH]cn1)C(=O)N[C@@H](CS)C(=O)O)[C@@H](C)O)C(C)C)C(C)C", "valueKind": "pIC50", "observedValue": 8.21}
{"molecule": "CC[C@H](C)[C@H](NC(=O)[C@H](CS)NC(=O)[C@H](Cc1c[nH]cn1)NC(=O)[C@H](C)NC(=O)[C@H](C)NC(=O)[C@@H](NC(=O)[C@H](CC(C)C)NC(=O)[C@@H](NC(=O)[C@H](Cc1c[nH]c2ccccc12)NC(=O)[C@H](CCC(N)=O)NC(=O)[C@@H]1CCCN1C(=O)[C@@H](N)Cc1c[nH]cn1)C(C)C)[C@@H](C)O)C(=O)N[C@@H](CCCNC(=N)N)C(=O)N[C@@H](CC(N)=O)C(=O)N[C@@H](CCCCN)C(=O)O", "valueKind": "pIC50", "observedValue": 5.26}
{"molecule": "CC(C)C[C@H](NC(=O)[C@H](CCC(N)=O)NC(=O)[C@H](CC(=O)O)NC(=O)[C@H](CCC(=O)O)NC(=O)[C@H](CO)NC(=O)[C@H](CC(C)C)NC(=O)[C@@H]1CCCN1C(=O)[C@@H](NC(=O)[C@@H](N)[C@@H](C)O)C(C)C)C(=O)N[C@@H](CC(C)C)C(=O)N[C@@H](Cc1ccc(O)cc1)C(=O)N[C@@H](CC(C)C)C(=O)N1CCC[C@H]1C(=O)N[C@@H](Cc1ccccc1)C(=O)N[C@@H](CCCNC(=N)N)C(=O)O", "valueKind": "pIC50", "observedValue": 6.06}
